Sourced from ChEMBL document CHEMBL1165861

# Tested on: Rattus norvegicus
# measurementProtocol: Antiinflammatory activity in Wistar albino rat assessed as inhibition of carrageenan-induced paw edema at 50 mg/kg, po administered 30 mins before carrageenan challenge measured after 90 mins relative to control
# Type: functional
outcomeMeasure: inhibition in vivo at 50 mg/kg (%)
Please give a number only; it is taken to be in %.

Some solved cases for reference:
{"columns": ["molecule", "studySystem", "inhibition in vivo at 50 mg/kg [%]"],
 "data": [
  ["NS(=O)(=O)c1ccc(N2N=C(c3ccccc3)CC2c2cn(-c3ccccc3)nc2-c2ccccc2)cc1 (stereo not drawn)", "Rattus norvegicus", 10],
  ["Cc1ccc(-c2nn(-c3ccccc3)cc2C2CC(c3ccc(F)cc3)=NN2c2ccc(S(N)(=O)=O)cc2)cc1 (stereo not drawn)", "Rattus norvegicus", 34]
]}

Please examine the following record next.
Data point: Cc1ccc(C2=NN(c3ccc(S(N)(=O)=O)cc3)C(c3cn(-c4ccccc4)nc3-c3ccc(C)cc3)C2)cc1 (stereo not drawn) ; inhibition in vivo at 50 mg/kg = 16
